Items are presented alongside their recorded MIC H. influen..
Test system: H. influen.
Experiment: Susceptibility testing (MIC, CLSI microdilution)
Format: cell-based, Haemophilus influenzae
Conditions: 20 h at 35° C., unit assumed

> print(dat)
                                   compound  measurement.kind     value
1  CCCc1ccc(-c2ccc(C(=O)N3CC[C@H](NC)[C@H]3C(=O)NO)cc2)cc1   MIC H. influen.  32 µg/mL

What value of MIC H. influen. on H. influen. does CCCc1ccc(-c2ccc(C(=O)NC(C(=O)NO)c3cccs3)cc2)cc1 (stereo not shown) have?
16 µg/mL

Lab request: please report MIC H. influen. under test system H. influen. for COc1ccc(C(=O)N2CC[C@@H](O)[C@H]2C(=O)NO)cc1SC(F)(F)F
> 64 µg/mL

Give H. influen. MIC H. influen. for CCCc1ccc(-c2ccc(C(=O)NC(C(=O)NO)C(F)(F)F)cc2)cc1 (racemic)
0.25 µg/mL

API: value(readout=MIC H. influen., system=H. influen.) for record CCCc1ccc(-c2ccc(C(=O)N3CS(=O)(=O)CC3C(=O)NO)cc2)cc1 (stereo in doubt)
> 64 µg/mL

Query for H. influen.: what MIC H. influen. does the record show for O=C(NO)[C@H]1N(C(=O)c2ccc(-c3cc(F)cc(F)c3)cc2)CCS1(=O)=O ?
> 64 µg/mL

* * *

System: H. influen.
Test: Susceptibility testing (MIC, CLSI microdilution)
Format: cell-based, Haemophilus influenzae
Details: 20 h at 35° C., unit assumed
# MIC H. influen. values compiled below

> print(dat)
                                   molecule     value
1  CCCc1ccc(-c2ccc(C(=O)N3C[C@@H](N)[C@H](O)[C@H]3C(=O)NO)cc2)cc1  32 µg/mL

Find the recorded MIC H. influen. belonging to CCCc1ccc(-c2ccc(C(=O)N3CC[S+]([O-])[C@H]3C(=O)NO)cc2)cc1 (stereo partly shown) and report it.
> 64 µg/mL

Name the recorded MIC H. influen. for CCCc1ccc(-c2ccc(C(=O)N3C[C@H](N)[C@@H](O)[C@H]3C(=O)NO)cc2)cc1 .
32 µg/mL

Fill blank: measured MIC H. influen. of the molecule O=C(NC(C(=O)NO)C(F)(F)F)c1ccc(-c2ccsc2)cc1 (racemic) is ____.
8 µg/mL

* * *

Molecular target: P. ae LpxC enzyme (Pseudomonas aeruginosa, UniProt P47205)
Sequence (P47205 whole entry): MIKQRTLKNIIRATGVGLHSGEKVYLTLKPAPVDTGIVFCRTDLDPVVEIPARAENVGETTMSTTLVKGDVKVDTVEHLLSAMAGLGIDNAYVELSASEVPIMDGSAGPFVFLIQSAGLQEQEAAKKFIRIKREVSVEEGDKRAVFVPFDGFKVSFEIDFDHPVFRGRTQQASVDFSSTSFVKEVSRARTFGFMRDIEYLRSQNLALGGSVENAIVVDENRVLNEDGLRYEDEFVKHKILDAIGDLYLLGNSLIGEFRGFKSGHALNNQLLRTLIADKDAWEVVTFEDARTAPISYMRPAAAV
Experiment: Enzyme inhibition testing (fluorescamine assay)
Type: biochemical
Conditions: @0.5 μg/ml; read-out: ENZYME (percent inhibition)
Description: Compounds were tested based on a published method (Wang W., 2001, Anal Biochem, 290, 338-46) with modifications. […] P. ae LpxC enzyme dilution in the assay buffer is added to the compound in plate and pre-incubated with the compound at room temperature for 10 min. […] 100 μl of this filtrate is transferred to a low fluorescence clear-bottom 96-well plate (Corning) and the fluorescence is detected at ex360 nm and em465 nm on a Tecan fluorescence plate reader. […]
measurement-kind: inhibition at 0.5 µg/mL (%)
Report the figure in % without appending any unit label.

Look over these answered cases.
> print(dat)
                                   compound                          target.or.system  value
1  CCCc1ccc(-c2ccc(C(=O)N3CC[S+]([O-])[C@H]3C(=O)NO)cc2)cc1 (some centres unmarked)  P. ae LpxC enzyme (Pseudomonas aeruginosa, UniProt P47205)     99
2  CCCc1ccc(-c2ccc(C(=O)NC(CF)C(=O)NO)cc2)cc1 (racemic)  P. ae LpxC enzyme (Pseudomonas aeruginosa, UniProt P47205)     77
3  CCCc1ccc(-c2ccc(C(=O)N3CC[C@H](N)[C@H]3C(=O)NO)cc2)cc1  P. ae LpxC enzyme (Pseudomonas aeruginosa, UniProt P47205)     65
4  CCCc1ccc(-c2ccc(C(=O)N3C[C@H](N)[C@@H](O)[C@H]3C(=O)NO)cc2)cc1  P. ae LpxC enzyme (Pseudomonas aeruginosa, UniProt P47205)     95
5  CCCc1ccc(-c2ccc(C(=O)N3C[C@H](O)[C@H](O)[C@H]3C(=O)NO)cc2)cc1  P. ae LpxC enzyme (Pseudomonas aeruginosa, UniProt P47205)     60
6  CCCc1ccc(-c2ccc(C(=O)NC(C(=O)NO)c3cccs3)cc2)cc1 (centres unmarked)  P. ae LpxC enzyme (Pseudomonas aeruginosa, UniProt P47205)     87
7  CCCc1ccc(-c2ccc(C(=O)N3CC[C@H](NC=O)[C@H]3C(=O)NO)cc2)cc1  P. ae LpxC enzyme (Pseudomonas aeruginosa, UniProt P47205)     69

With those in mind, consider the next compound.
Dear colleague, I am looking for the recorded inhibition at 0.5 µg/mL of the following compound: CCCc1ccc(-c2ccc(C(=O)N3CSC[C@H]3C(=O)NO)cc2)cc1
57

* * *

Molecular target: P. ae LpxC enzyme (Pseudomonas aeruginosa)
Assay: Enzyme inhibition testing (fluorescamine assay)
Format: biochemical
Settings: @0.5 μg/ml; read-out: ENZYME (percent inhibition)
Quick list: inhibition at 0.5 µg/mL per entry.
Return type: number; implicit unit %.

Some compounds with known inhibition at 0.5 µg/mL results, for comparison:
> print(dat)
                                   compound                          target.or.system  output.unit  value
1  CCCc1ccc(-c2ccc(C(=O)N3CCS[C@@H]3C(=O)NO)cc2)cc1  P. ae LpxC enzyme (Pseudomonas aeruginosa)            %     50
2  CCCc1ccc(-c2ccc(C(=O)N3CC[C@H](N=[N+]=[N-])[C@H]3C(=O)NO)cc2)cc1  P. ae LpxC enzyme (Pseudomonas aeruginosa)            %     35
3  CCCc1ccc(-c2ccc(C(=O)N3C[C@@H](N)[C@H](O)[C@H]3C(=O)NO)cc2)cc1  P. ae LpxC enzyme (Pseudomonas aeruginosa)            %     84

Now consider a different compound.
Given CCCc1ccc(-c2ccc(C(=O)N3CS(=O)(=O)CC3C(=O)NO)cc2)cc1 (stereo in doubt) , state its recorded inhibition at 0.5 µg/mL.
98

* * *

Measured inhibition at 0.1 µg/mL of individual entries
Molecular target: P. ae LpxC enzyme (Pseudomonas aeruginosa, UniProt P47205)
Experiment: Enzyme inhibition testing (fluorescamine assay)
Type: biochemical
Conditions: @0.1 μg/ml; read-out: ENZYME (percent inhibition)
Answer format: numeric, % implied, no suffix.

> print(dat)
                                   compound  output.unit  value
1  O=C(NC(C(=O)NO)C(F)(F)F)c1ccc(-c2ccsc2)cc1 (racemic)            %     13
2  CCCc1ccc(-c2ccc(C(=O)N3CCS(=O)(=O)[C@H]3C(=O)NO)cc2)cc1            %     41
3  CCOc1ccc(-c2ccc(C(=O)N3CCS(=O)(=O)[C@H]3C(=O)NO)cc2)cc1            %     12
4  O=C(NC(C(=O)NO)C(F)(F)F)c1ccc(-c2ccc(F)cc2)cc1 (racemic)            %     12

Lookup: inhibition at 0.1 µg/mL / P. ae LpxC enzyme (Pseudomonas aeruginosa, UniProt P47205) / CCCc1ccc(-c2ccc(C(=O)N[C@@H](CCS(C)(=O)=O)C(=O)NO)cc2)cc1
38

* * *

The entries below are paired with their reported MIC H. influen..
Test system: H. influen.
Assay: Susceptibility testing (MIC, CLSI microdilution)
Type: cell-based, Haemophilus influenzae
Conditions: 20 h at 35° C., unit assumed
Description: Compounds were tested following the microdilution method of CLSI (Clinical and Laboratory Standards Institute. Methods for dilution antimicrobial susceptibility tests for bacteria that grow aerobically; Approved standard—sixth edition. CLSI document M7-A5, CLSI, Wayne, Pa. 2003). […] The completed microtiter plates were incubated 20 h at 35° C. in ambient air. Optical density of each well was determined at 600 nm using a VersaMax Microplate reader (Molecular Devices, Sunnyvale, Calif.). […]

> print(dat)
                                   compound  measurement.kind       value
1  O=C(NO)[C@H]1N(C(=O)c2ccc(Oc3ccccc3)cc2)CCS1(=O)=O   MIC H. influen.  > 64 µg/mL

Could you tell me which MIC H. influen. is on file for CCCc1ccc(-c2ccc(C(=O)N3CC[C@@H](OC)[C@H]3C(=O)NO)cc2)cc1 ?
64 µg/mL

Can you share its MIC H. influen.? I mean this compound: CCOc1ccc(-c2ccc(C(=O)NC(C(=O)NO)C(F)(F)F)cc2)cc1 (racemic)
0.5 µg/mL

I am curious: what MIC H. influen. value has been reported for CCCc1ccc(-c2ccc(C(=O)N3CC[C@H](NC=O)[C@H]3C(=O)NO)cc2)cc1 ?
> 64 µg/mL

Consider the compound CCCc1ccc(-c2ccc(C(=O)N3CC[C@H](NS(C)(=O)=O)[C@H]3C(=O)NO)cc2)cc1 and give its measured MIC H. influen..
> 64 µg/mL

Which MIC H. influen. reading was recorded for the compound CCCc1ccc(-c2ccc(C(=O)N3CCS[C@H]3C(=O)NO)cc2)cc1 ?
64 µg/mL

Could you share which MIC H. influen. value was measured for CCCc1ccc(-c2ccc(C(=O)N3C[C@H](O)[C@H](O)[C@H]3C(=O)NO)cc2)cc1 ?
> 64 µg/mL

Suppose we examine the compound CCCc1ccc(-c2ccc(C(=O)N3CSC[C@H]3C(=O)NO)cc2)cc1 ; what MIC H. influen. value has been reported?
> 64 µg/mL
